- system: PARP-1 F1+F2 (24-kDa DBD) (Homo sapiens, UniProt P09874 1-214)
- Sequence (P09874 1-214): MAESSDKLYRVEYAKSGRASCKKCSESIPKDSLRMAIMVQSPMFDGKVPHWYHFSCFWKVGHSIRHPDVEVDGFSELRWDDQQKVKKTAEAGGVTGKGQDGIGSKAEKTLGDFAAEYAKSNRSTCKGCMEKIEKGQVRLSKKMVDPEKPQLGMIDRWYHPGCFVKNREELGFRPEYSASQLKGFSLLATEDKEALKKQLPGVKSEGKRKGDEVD
- method-notes: fluorescence anisotropy; 150; 50 mM Tris-HCl pH 7.0, 150 uM ZnSO4, 4 mM DTT, 25 C; NaCl 0-200 mM (T2, as in cof; 10 nM DNA) or 25 mM (T3 mutants; 25 nM DNA)
- test-conditions: protein: recombinant; label: fluorescein-dT at T8; single-chain dumbbell, 18 bp with central nick, two tetraloops
endpoint: pKd
# pKd is unitless: minus log10 of the molar concentration; print number only

Q: Reported pKd for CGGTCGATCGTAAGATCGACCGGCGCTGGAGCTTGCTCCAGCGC (structured_DNA, 5'-phosphate) [44-nt nicked dumbbell, 5'-phosphate, fluorescein-dT] : what is it?
A: 7.61
